- Tested on: MV4-11 cells (acute myeloid leukemia)
- assayProcedure: Cell proliferation inhibition, MV4-11 (cck-8)
- Assay type: cell-based
- assaySetup: Homo sapiens, 96 h incubation, read-out: Proliferation IC50, Acute myeloid leukemia MV4-11
Recorded IC50 by entry

Here's what some known entries look like.
[
  {
    "structureString": "CN(Cc1nc2c(N3CCOCC3)nc(-c3cnc4ccccc4c3)nc2n1C)c1ncc(C(=O)NO)cn1",
    "IC50": "0.1 to 10 nM"
  },
  {
    "structureString": "Cc1ccc(-c2nc(N3CCOCC3)c3nc(CN(C)c4ncc(C(=O)NO)cn4)n(C)c3n2)cc1",
    "IC50": "0.1 to 10 nM"
  },
  {
    "structureString": "CCn1c(CN(C)c2ncc(C(=O)NO)cn2)nc2c(N3CCOCC3)nc(-c3ccc(OC)cc3)nc21",
    "IC50": "0.1 to 10 nM"
  },
  {
    "structureString": "CCCN(Cc1nc2c(N3CCOCC3)nc(-c3ccc(OC)nc3)nc2n1C)c1ncc(C(=O)NO)cn1",
    "IC50": "> 1000 nM"
  },
  {
    "structureString": "CCCCN(Cc1nc2c(N3CCOCC3)nc(-c3ccc4[nH]ncc4c3)nc2n1C)c1ncc(C(=O)NO)cn1",
    "IC50": "> 1000 nM"
  }
]

*Q* Give its IC50 value. Item: `CN(Cc1nc2c(N3CCOCC3)nc(-c3cc(C(F)(F)F)cc(C(F)(F)F)c3)nc2n1C)c1ncc(C(=O)NO)cn1`
*A* 10 to 100 nM

*Q* I have this compound here, `CCNc1ccc(-c2nc(N3CCOCC3)c3nc(CN(C)c4ncc(C(=O)NO)cn4)n(C)c3n2)cc1` , and I need its recorded IC50.
*A* 0.1 to 10 nM

*Q* Quick check: IC50 of `COc1ccc(-c2nc(N3CCOCC3)c3nc(CN(C)c4ncc(C(=O)NO)cn4)n(C)c3n2)cn1` ?
*A* 0.1 to 10 nM

====

- System: MM1S cells (multiple myeloma)
- assayProcedure: Proliferation inhibition, MM1S (cck-8)
- Assay type: cell-based
- assaySetup: Homo sapiens, MM1.S; 96 h incubation
readoutLabel: IC50

[
  {
    "molecule": "Cc1[nH]c2ccccc2c1CCNCc1ccc(/C=C/C(=O)NO)cc1 [LBH589, panobinostat, reference compound]",
    "result": "1 to 10 nM"
  },
  {
    "molecule": "CN(Cc1nc2c(N3CCOCC3)nc(-c3ccncc3)nc2n1C)c1ncc(C(=O)NO)cn1",
    "result": "0.1 to 1 nM"
  },
  {
    "molecule": "CN(Cc1nc2c(N3CCOCC3)nc(-c3ccc(N)cc3)nc2n1C)c1ncc(C(=O)NO)cn1",
    "result": "1 to 10 nM"
  },
  {
    "molecule": "COc1ccc(-c2nc(N3CCOCC3)c3nc(CN(C)c4ncc(C(=O)NO)cn4)n(C)c3n2)cc1",
    "result": "0.1 to 1 nM"
  },
  {
    "molecule": "COc1ccc(-c2nc(N3CCOCC3)c3nc(CN(C)c4ncc(C(=O)NO)cn4)n(C)c3n2)cn1",
    "result": "0.1 to 1 nM"
  }
]

# next molecule below
*Q* Quick check: IC50 of `CN(Cc1nc2c(N3CCOCC3)nc(-c3cnc(N)nc3)nc2n1C)c1ncc(C(=O)NO)cn1` ?
*A* 1 to 10 nM

Values were extracted from patent US10227347B2.
